# Experimental system: GLP-1 Receptor (Homo sapiens)
# Measurement notes: GLP-1R agonist cAMP stimulation assay (HEK293/GLP1R/CRE-Luc cells, HTRF cAMP)
# Type: cell-based
# Condition: HEK293/CRE-Luc cells stably expressing GLP-1 Receptor; 30 min, 37° C.
Assay endpoint: GLP1R cAMP Stimulation DR: pEC50

Here is how some compounds turned out for GLP1R cAMP Stimulation DR: pEC50.
O=C(O)c1ccc2nc(Cc3ccc(Oc4ccnc(Cc5ccc(Cl)cc5)n4)cc3)n(C[C@@H]3CCO3)c2n1 [Compound 186a]: 9.2
O=c1[nH]c(-c2ccc3nc(CN4CCC(Oc5ccnc(Cc6ccc(Cl)cc6)n5)CC4)n(C[C@@H]4CCO4)c3n2)no1 [Compound 198a]: 9.2

a = N#Cc1ccc(Cc2nccc(O[C@H]3CC[C@H](Cc4nc5ccc(C(=O)O)nc5n4C[C@@H]4CCO4)CC3)n2)cc1 [Compound 182a]
b = O=C(O)c1ccc2nc(CN3CC=C(c4cnc5ccc(Cc6ccc(Cl)cc6F)nn45)CC3)n(C[C@@H]3CCO3)c2n1 [Compound 192a]
Prompt: Looking at recorded values for GLP1R cAMP Stimulation DR: pEC50, does a or b come in lower? Kindly state the label of the option you pick.
Completion: b
(b: 6.9, a: 10.2)

###

# Experimental system: GLP-1 Receptor (Homo sapiens)
# Measurement notes: GLP-1R agonist cAMP stimulation assay (HEK293/GLP1R/CRE-Luc cells, HTRF cAMP)
# Assay type: cell-based
# Condition: HEK293/CRE-Luc cells stably expressing GLP-1 Receptor; 30 min, 37° C.
Assay endpoint: GLP1R cAMP Stimulation DR: pEC50

O=C(O)c1ccc2nc(CN3CCC(Oc4ccnc(Cc5ccc(Cl)cc5)c4)CC3)n(C[C@@H]3CCO3)c2n1 [Compound 159a]: 8.6
O=C(O)c1ccc2nc(Cc3ccc(Oc4nc(Cc5ccc(Cl)cc5)ncc4F)cc3F)n(C[C@@H]3CCO3)c2n1 [Compound 190a]: 9.4
O=C(O)c1ccc2nc(CN3CCC(Oc4cccc(Cc5ccc(Cl)cc5)n4)CC3)n(C[C@@H]3CCO3)c2n1 [Compound 124a]: 10.4
O=C(O)c1ccc2nc(CN3CCC(Oc4nc(Cc5ccc(Cl)cc5)ncc4F)CC3)n(C[C@H]3CCOC3)c2n1 [Compound 197a]: 8.6
O=C(O)c1ccc2nc(CN3CCC(Oc4ccc(=O)n(Cc5ccc(Cl)cc5F)n4)CC3)n(C[C@@H]3CCO3)c2n1 [Compound 144a]: 8.3
O=C(O)c1ccc2nc(CN3CCC(Oc4cc(C(F)(F)F)cc(Cc5ccc(Cl)cc5)n4)CC3)n(C[C@@H]3CCO3)c2n1 [Compound 156a]: 7.4
O=C(O)c1ccc2nc(CN3CCC(Oc4cccc(Cc5ccc(C6CC6)cc5)n4)CC3)n(C[C@@H]3CCO3)c2n1 [Compound 146a]: 9.2
O=C(O)c1ccc2nc(Cc3ccc(Oc4nc(Cc5ccc(Cl)cc5)ncc4F)cc3)n(C[C@@H]3CCO3)c2n1 [Compound 189a]: 9.2
Cc1cn(Cc2ccc(Cl)cc2F)nc1OC1CCN(Cc2nc3ccc(C(=O)O)nc3n2C[C@@H]2CCO2)CC1 [Compound 133a]: 8.6
O=C(O)c1ccc2nc(C[C@H]3CC[C@H](Oc4nc(Cc5ccc(Cl)cc5)ncc4F)CC3)n(C[C@@H]3CCO3)c2n1 [Compound 188a]: 10.3
N#Cc1ccc(Cc2cccc(OC3CCN(Cc4nc5ccc(C(=O)O)nc5n4C[C@@H]4CCO4)CC3)n2)c(F)c1 [Compound 136a]: 9.4
COC(C)Cn1c(CN2CCC(Oc3ccnc(Cc4ccc(Cl)cc4)n3)CC2)nc2ccc(C(=O)O)nc21 (stereo not shown) [Compound 195]: 9.2
O=C(O)c1ccc2nc(CN3CCC(n4ccc5ccc(Cc6ccc(Cl)cc6F)nc54)CC3)n(C[C@@H]3CCO3)c2n1 [Compound 140a]: 8.9

###

# Experimental system: GLP-1 Receptor (Homo sapiens, UniProt P43220)
# Sequence (P43220 24-463): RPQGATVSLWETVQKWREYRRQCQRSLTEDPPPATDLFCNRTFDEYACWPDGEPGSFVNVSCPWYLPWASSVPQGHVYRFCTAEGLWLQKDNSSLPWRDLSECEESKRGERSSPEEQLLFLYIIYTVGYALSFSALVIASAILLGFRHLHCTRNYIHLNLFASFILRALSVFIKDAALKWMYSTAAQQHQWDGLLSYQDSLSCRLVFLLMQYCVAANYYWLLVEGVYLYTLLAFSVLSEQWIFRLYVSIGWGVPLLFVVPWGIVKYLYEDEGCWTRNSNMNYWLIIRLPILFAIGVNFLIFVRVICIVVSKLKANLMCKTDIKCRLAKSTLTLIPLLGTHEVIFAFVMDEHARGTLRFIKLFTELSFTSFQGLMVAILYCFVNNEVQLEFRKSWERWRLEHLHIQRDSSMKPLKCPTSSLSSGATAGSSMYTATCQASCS
# Measurement notes: GLP-1R agonist cAMP stimulation assay (HEK293/GLP1R/CRE-Luc cells, HTRF cAMP)
# Assay type: cell-based
# Condition: 30 min, 37° C.; read-out: GLP1R cAMP Stimulation DR: EC50
Assay endpoint: pEC50
API: returns pEC50 as number; meaning -log10 of concentration in mol/L.

pEC50 recorded for this compound, O=C(O)c1ccc2nc(CN3CCC(Oc4cccc(Cc5ccc(Cl)s5)n4)CC3)n(C[C@@H]3CCO3)c2n1 [Compound 147a] , is 9.70

###

# Experimental system: GLP-1 Receptor (Homo sapiens)
# Measurement notes: GLP-1R agonist cAMP stimulation assay (HEK293/GLP1R/CRE-Luc cells, HTRF cAMP)
# Format: cell-based
# Condition: HEK293/CRE-Luc cells stably expressing GLP-1 Receptor; 30 min, 37° C.
Assay endpoint: GLP1R cAMP Stimulation DR: pEC50

O=C(O)c1ccc2nc(CN3CCC(Oc4cccc(Cc5ccc(C(F)(F)F)cc5)n4)CC3)n(C[C@@H]3CCO3)c2n1 [Compound 145a]: 8.5
O=C(O)c1ccc2nc(CN3CCC(Oc4nc(Cc5ccc(Cl)cc5F)ccc4Cl)CC3)n(C[C@@H]3CCO3)c2n1 [Compound 137a]: 7.3
O=C(O)c1ccc2nc(CN3CCC(Oc4cccc(Cc5ccc(Cl)cc5)c4F)CC3)n(C[C@@H]3CCO3)c2n1 [Compound 157a]: 7.4
O=C(O)c1ccc2nc(C[C@H]3CC[C@H](Oc4ccnc(Cc5ccc(Cl)cc5)n4)CC3)n(C[C@@H]3CCO3)c2n1 [Compound 177a]: 10.4
O=C(O)c1ccc2nc(CN3CCC(Oc4ccnc(Cc5ccc(Cl)cc5F)n4)C(F)(F)C3)n(C[C@@H]3CCO3)c2n1 (stereo partly shown) [Compound 168a]: 8.9
O=C(O)c1ccc2nc(CN3CCC(c4cccc5cn(Cc6ccc(Cl)cc6F)nc45)CC3)n(C[C@@H]3CCO3)c2n1 [Compound 142a]: 8.8
O=C(O)c1ccc2nc(CN3CCC(Oc4ccnc(Cc5ccc(Cl)cc5F)n4)CC3)n(C[C@@H]3CCO3)c2n1 [Compound 113a]: 10.4

###

# Experimental system: GLP-1 Receptor (Homo sapiens)
# Measurement notes: GLP-1R agonist cAMP stimulation assay (HEK293/GLP1R/CRE-Luc cells, HTRF cAMP)
# Assay type: cell-based
# Condition: 30 min, 37° C.
Assay endpoint: GLP1R cAMP Stimulation DR: pEC50
Enter the number alone.

Here is how some compounds turned out for GLP1R cAMP Stimulation DR: pEC50.
O=C(O)c1ccc2nc(CN3CCC(c4cccc5nc(Cc6ccc(Cl)cc6F)oc45)CC3)n(C[C@@H]3CCO3)c2n1 [Compound 143a]: 9.3
O=C(O)c1ccc2nc(CC3CCN(C(=O)c4cccc(Cc5ccc(Cl)cc5F)n4)CC3)n(C[C@@H]3CCO3)c2n1 [Compound 106a]: 6.33
O=C(O)c1ccc2nc(CN3CCC(C(F)(F)c4cccc(Cc5ccc(Cl)cc5F)n4)CC3)n(C[C@@H]3CCO3)c2n1 [Compound 173a]: 8.4
CC(=O)Nc1ccc2nc(CN3CCC(Oc4cccc(Cc5ccc(Cl)cc5F)n4)CC3)n(C[C@@H]3CCO3)c2c1 [Compound 134a]: 7.2

GLP1R cAMP Stimulation DR: pEC50 recorded for this compound, O=C(O)c1ccc2nc(CN3CCC(Oc4cccc(Cc5ccc(Cl)s5)n4)CC3)n(C[C@@H]3CCO3)c2n1 [Compound 147a] , is 9.7

###

# Experimental system: UniProtKB P43220
# Measurement notes: GLP-1R agonist cAMP stimulation assay (HEK293/GLP1R/CRE-Luc cells, HTRF cAMP)
# Format: cell-based
# Condition: HEK293/CRE-Luc cells stably expressing GLP-1 Receptor; 30 min, 37° C.
Assay endpoint: GLP1R cAMP Stimulation DR: pEC50

O=C(O)c1ccc2nc(Cc3ccc(Oc4nc(Cc5ccc(Cl)cc5)ncc4F)cc3F)n(C[C@@H]3CCO3)c2c1 [Compound 191a]: 9.5
O=C(O)c1ccc2nc(C[C@H]3CC[C@H](Oc4cccc(Cc5ccc(Cl)cc5F)n4)CC3)n(C[C@@H]3CCO3)c2n1 [Compound 174b]: 9.9
Cc1cc(Cc2ccc(Cl)cc2)nc(OC2CCN(Cc3nc4ccc(C(=O)O)nc4n3C[C@@H]3CCO3)CC2)c1 [Compound 154a]: 7.6
O=C(O)c1ccc2nc(C[C@H]3CC[C@H](Oc4ccnc(Cc5ccc(Cl)cc5)n4)CC3)n(C[C@@H]3CCO3)c2c1 [Compound 176a]: 9.4
O=C(O)c1ccc2nc(CN3CCC(Oc4ccnc(Cc5ccc(Cl)c(Cl)c5)n4)CC3)n(C[C@@H]3CCO3)c2n1 [Compound 167a]: 9.9
O=C(O)c1ccc2nc(CN3CCC(Oc4cccc(CN5Cc6ccccc6C5=O)n4)CC3)n(C[C@@H]3CCO3)c2n1 [Compound 148a]: 8.4
O=C(O)c1ccc2nc(Cc3ccc(Oc4ccnc(Cc5ccc(Cl)cc5)n4)cc3)n(C[C@@H]3CCO3)c2c1 [Compound 187a]: 8.9
